molecular target: T1, recombinant human Tau monomer, 2N4R isoform (amino acids 2-441) (human, UniProt P10636-8 2-441); assay: SPR; Normalized Rmax post-stress (2 weeks 40 C) / pre-stress
T1 construct: range 2-441; N-terminal His-tag removed with TEV protease; also called monomeric Tau
T1 sequence (P10636 other isoform, or with tags, fused parts or gaps limits assumed): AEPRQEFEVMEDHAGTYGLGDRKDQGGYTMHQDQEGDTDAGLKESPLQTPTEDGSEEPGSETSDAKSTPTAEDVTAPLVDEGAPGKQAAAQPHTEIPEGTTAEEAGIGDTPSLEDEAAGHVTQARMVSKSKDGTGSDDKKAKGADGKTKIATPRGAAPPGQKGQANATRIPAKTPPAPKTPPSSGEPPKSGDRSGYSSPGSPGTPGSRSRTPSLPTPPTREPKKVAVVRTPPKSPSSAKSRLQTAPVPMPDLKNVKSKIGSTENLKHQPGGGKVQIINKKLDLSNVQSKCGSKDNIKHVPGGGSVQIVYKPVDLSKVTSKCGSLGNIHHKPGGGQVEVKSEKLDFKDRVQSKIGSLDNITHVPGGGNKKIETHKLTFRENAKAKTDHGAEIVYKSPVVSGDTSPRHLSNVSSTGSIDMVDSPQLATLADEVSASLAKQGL
MEASUREMENT KIND: Stability Index (%)
One number for each entry, in %.

As a guide, the following entries are already answered.
# BINDER, Stability Index (%)
records = [
    ("hu37D3-H9.v31.13 (antibody, V domains shown) VH: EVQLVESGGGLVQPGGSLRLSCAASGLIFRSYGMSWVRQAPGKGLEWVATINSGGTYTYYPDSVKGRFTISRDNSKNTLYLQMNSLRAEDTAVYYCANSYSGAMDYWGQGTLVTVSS VL: DDVLTQTPLSLPVTPGQPASISCRSSQSIVHSNANNYFEWYLQKPGQSPQLLIYKVSNRFSGVPDRFSGSGSGTDFTLKISRVEAEDVGVYYCFQGSLVPWTFGQGTKVEIK", 83),
    ("hu37D3.v28.C1 (antibody, V domains shown) VH: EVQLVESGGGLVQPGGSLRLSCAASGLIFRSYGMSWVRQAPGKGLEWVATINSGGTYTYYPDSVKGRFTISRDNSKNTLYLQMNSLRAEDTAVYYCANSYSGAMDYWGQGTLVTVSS VL: DDVLTQTPLSLPVTPGQPASISCRSSQSIVHSNNNTYFEWYLQKPGQSPQLLIYKVSNRFSGVPDRFSGSGSGTDFTLKISRVEAEDVGVYYCFQGSLVPWTFGQGTKVEIK", 77),
    ("hu37D3-H9.v31.2 (antibody, V domains shown) VH: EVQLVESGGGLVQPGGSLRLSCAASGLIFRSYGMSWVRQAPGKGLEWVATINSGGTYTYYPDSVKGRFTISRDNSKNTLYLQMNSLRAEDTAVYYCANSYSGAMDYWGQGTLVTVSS VL: DDVLTQTPLSLPVTPGQPASISCRSSQSIVHSNAVTYFEWYLQKPGQSPQLLIYKVSNRFSGVPDRFSGSGSGTDFTLKISRVEAEDVGVYYCFQGSLVPWTFGQGTKVEIK", 90),
    ("hu37D3-H9.v31.11 (antibody, V domains shown) VH: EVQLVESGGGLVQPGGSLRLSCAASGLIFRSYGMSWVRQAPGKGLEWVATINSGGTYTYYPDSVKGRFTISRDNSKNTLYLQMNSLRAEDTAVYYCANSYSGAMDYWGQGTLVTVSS VL: DDVLTQTPLSLPVTPGQPASISCRSSQSIVHSNANFYFEWYLQKPGQSPQLLIYKVSNRFSGVPDRFSGSGSGTDFTLKISRVEAEDVGVYYCFQGSLVPWTFGQGTKVEIK", 126),
    ("hu37D3.v29.4 (antibody, V domains shown) VH: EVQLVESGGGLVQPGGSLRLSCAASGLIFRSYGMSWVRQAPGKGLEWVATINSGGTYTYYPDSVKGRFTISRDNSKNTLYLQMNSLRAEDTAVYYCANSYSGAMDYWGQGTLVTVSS VL: EDVLTQTPLSLPVTPGQPASISCRSSQSIVHSNGATYFEWYLQKPGQSPQLLIYKVSNRFSGVPDRFSGSGSGTDFTLKISRVEAEDVGVYYCFQGSLVPWTFGQGTKVEIK", 76),
]

Count: 4. Required value per item: Stability Index.
1. hu37D3-H9.v30.3 (antibody, V domains shown) VH: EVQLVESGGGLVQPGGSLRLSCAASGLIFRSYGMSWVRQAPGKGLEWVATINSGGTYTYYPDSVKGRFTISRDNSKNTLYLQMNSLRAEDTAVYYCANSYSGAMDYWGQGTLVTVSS VL: DDVLTQTPLSLPVTPGQPASISCRSSQSIVHSVGNTYFEWYLQKPGQSPQLLIYKVSNRFSGVPDRFSGSGSGTDFTLKISRVEAEDVGVYYCFQGSLVPWTFGQGTKVEIK
2. hu37D3.v28.E2 (antibody, V domains shown) VH: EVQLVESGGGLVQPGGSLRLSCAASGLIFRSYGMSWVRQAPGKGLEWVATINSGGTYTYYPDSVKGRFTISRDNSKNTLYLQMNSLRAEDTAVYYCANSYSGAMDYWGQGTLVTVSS VL: DDVLTQTPLSLPVTPGQPASISCRSSQSIVQSNGNTYFEWYLQKPGQSPQLLIYKVSNRFSGVPDRFSGSGSGTDFTLKISRVEAEDVGVYYCFQGSLVPWTFGQGTKVEIK
3. hu37D3-H9.v30.1 (antibody, V domains shown) VH: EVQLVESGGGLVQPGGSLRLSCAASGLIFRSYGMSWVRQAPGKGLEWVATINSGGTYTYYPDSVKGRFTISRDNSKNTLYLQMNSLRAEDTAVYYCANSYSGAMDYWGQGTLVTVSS VL: DDVLTQTPLSLPVTPGQPASISCRSSQSIVHSGGNTYFEWYLQKPGQSPQLLIYKVSNRFSGVPDRFSGSGSGTDFTLKISRVEAEDVGVYYCFQGSLVPWTFGQGTKVEIK
4. hu37D3-H9.v5 N28D hIgG1 (antibody, name in Kabat numbering, V domains shown, human IgG1, kappa; also called hu37D3-H9.v5.3) VH: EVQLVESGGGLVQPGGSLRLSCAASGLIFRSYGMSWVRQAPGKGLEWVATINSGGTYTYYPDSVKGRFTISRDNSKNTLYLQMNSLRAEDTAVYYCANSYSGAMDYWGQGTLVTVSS VL: EDVLTQTPLSLPVTPGQPASISCRSSQSIVHSDGNTYFEWYLQKPGQSPQLLIYKVSNRFSGVPDRFSGSGSGTDFTLKISRVEAEDVGVYYCFQGSLVPWTFGQGTKVEIK

a:
83
28
87
70

q: Looking for the measured Stability Index of hu37D3.v29.14 (antibody, V domains shown) VH: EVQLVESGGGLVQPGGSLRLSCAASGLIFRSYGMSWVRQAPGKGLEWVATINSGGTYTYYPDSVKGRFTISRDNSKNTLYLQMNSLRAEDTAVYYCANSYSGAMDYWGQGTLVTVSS VL: EDVLTQTPLSLPVTPGQPASISCRSSQSIVHSNALTYFEWYLQKPGQSPQLLIYKVSNRFSGVPDRFSGSGSGTDFTLKISRVEAEDVGVYYCFQGSLVPWTFGQGTKVEIK , can you help?
a: 92
